These measurements were taken from ChEMBL document CHEMBL3751788.

tested on: HT-29; assay: Antiproliferative activity against human HT-29 cells after 72 hrs by MTT assay; type: functional, cell-based; conditions: HT-29, 72 h
Quantity Name: EC50 (µM)
Give bare numbers, in µM.

Please give EC50, item by item, for the list that follows.
1. O=C(c1ccc(Cl)cc1)n1c2ccccc2c2nnsc21
2. Clc1ccc2[nH]c3snnc3c2c1
3. COc1ccc(S(=O)(=O)n2c3ccccc3c3nnsc32)cc1

Reply text:
1: 49.4; 2: 26.2; 3: 7.97

====

tested on: HEK293; assay: Antiproliferative activity against human HEK293 cells incubated with 2000 cells per well after 48 hrs by MTT assay; assay type: cell-based; conditions: HEK293, 48 h
Provide the recorded pEC50 for the entries that follow.
Numbers only, as −log10 of the molar value.

- Clc1ccc2[nH]c3snnc3c2c1: 4.61

Query COc1ccc(S(=O)(=O)n2c3ccccc3c3nnsc32)cc1 on HEK293; pEC50 returned: 4.82
